Value source: PubChem BioAssay AID1645865

- target_under_test: Ubiquitin carboxyl-terminal hydrolase 30 (Homo sapiens)
- experiment_notes: inhibitors of ubiquitin-specific protease 30 deubiquitylating enzyme, concentration dependence, in vitro biochemical, validation of primary hits (AID 1645865)
- condition: purified USP30, Ub-rhodamine cleavage, fluorescence, 2 h
Calls of active or inactive are those of the source.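 How the source made its calls: active means maximal inhibition of the USP30 enzyme reaching 30% or more across the dose series; inactive means the rest.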
Pick from t = active, f = inactive when you respond.

O=C(Nc1ccc(F)cc1F)NC1Cc2ccccc2C1 | t
N#Cc1ccc(NC(=O)Nc2cccn(Cc3ccccc3Br)c2=O)cc1 | f
COc1ccc(-c2cc3nc([C@H](C)NC(=O)Cc4cccc(F)c4)nn3cn2)cc1 | t
CCOC(=O)C1C(c2ccc(Br)cc2)C2(C(=O)c3ccccc3C2=O)C2C=Cc3ccccc3N12 (stereo not given) | f
O=C(CN1CCCCC1)Nc1nnc(-c2ccc([N+](=O)[O-])cc2)s1 | t
Cc1nn(C)c2c1[C@@H](c1ccc(F)c(Br)c1)[C@H](NC(=O)c1ccccc1)C(=O)N2 | f
CN1CCN(C(=O)c2ccn(-c3ccc4ccc(-c5cnn(C)c5)cn34)n2)CC1 | f
Cc1sc2ccn(C)c(=O)c2c1C(=O)NC1CCCC1 | t
COc1ccc(C)cc1NC(=O)C1CC(=O)Nc2nc(SCc3ccccc3)nn21 (stereo not given) | t

I'd appreciate the recorded outcome for CCCc1nc2c(sc3nc4c(cc32)COC(C)(C)C4)c(=O)n1CC(=O)Nc1ccccc1C from this test.
t
